The values you see were collected from ChEMBL document CHEMBL1961873.

experimental_system: Epidermal growth factor receptor (Homo sapiens) (UniProt P00533)
Sequence (P00533 whole entry): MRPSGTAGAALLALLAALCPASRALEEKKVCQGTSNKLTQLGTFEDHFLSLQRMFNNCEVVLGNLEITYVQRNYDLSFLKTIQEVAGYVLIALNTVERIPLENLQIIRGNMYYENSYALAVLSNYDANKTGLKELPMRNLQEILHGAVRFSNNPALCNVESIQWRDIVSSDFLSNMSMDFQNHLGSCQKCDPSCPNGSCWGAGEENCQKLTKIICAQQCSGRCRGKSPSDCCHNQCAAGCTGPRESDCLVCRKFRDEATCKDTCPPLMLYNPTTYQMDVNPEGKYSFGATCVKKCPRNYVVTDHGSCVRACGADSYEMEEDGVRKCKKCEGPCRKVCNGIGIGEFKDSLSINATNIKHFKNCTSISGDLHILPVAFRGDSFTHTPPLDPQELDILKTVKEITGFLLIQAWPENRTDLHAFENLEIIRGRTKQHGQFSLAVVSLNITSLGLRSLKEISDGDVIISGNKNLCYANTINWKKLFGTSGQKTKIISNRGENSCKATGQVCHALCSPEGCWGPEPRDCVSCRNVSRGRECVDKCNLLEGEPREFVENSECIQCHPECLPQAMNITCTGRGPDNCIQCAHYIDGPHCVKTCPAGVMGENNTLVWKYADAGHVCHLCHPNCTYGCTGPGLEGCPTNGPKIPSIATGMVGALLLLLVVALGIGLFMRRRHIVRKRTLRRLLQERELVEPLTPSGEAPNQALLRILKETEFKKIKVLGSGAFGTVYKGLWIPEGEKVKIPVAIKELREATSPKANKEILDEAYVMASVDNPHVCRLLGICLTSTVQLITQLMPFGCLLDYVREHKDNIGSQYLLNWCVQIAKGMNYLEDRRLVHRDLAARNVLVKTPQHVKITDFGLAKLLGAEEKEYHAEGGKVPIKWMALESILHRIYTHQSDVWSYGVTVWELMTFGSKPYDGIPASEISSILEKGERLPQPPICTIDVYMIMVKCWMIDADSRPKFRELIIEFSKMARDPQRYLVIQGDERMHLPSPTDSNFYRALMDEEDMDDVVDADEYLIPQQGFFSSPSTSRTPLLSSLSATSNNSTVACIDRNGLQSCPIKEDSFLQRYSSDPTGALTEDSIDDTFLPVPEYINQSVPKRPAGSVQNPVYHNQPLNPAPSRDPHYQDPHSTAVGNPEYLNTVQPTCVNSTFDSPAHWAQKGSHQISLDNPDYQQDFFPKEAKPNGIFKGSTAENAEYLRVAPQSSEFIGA
assay_conditions: at 0.1 µM
Description: GSK_PKIS: EGFR mean inhibition at 0.1 uM [Nanosyn]
observation_type: inhibition (%)

COc1ccc2ncn(-c3cc(O[C@H](C)c4ccccc4C(F)(F)F)c(C(N)=O)s3)c2c1; 0.37
Fc1cccc(COc2ccc(Nc3ncncc3C#Cc3ccccc3)cc2Cl)c1; 23.9
COC(=O)Nc1nc2cc(Oc3ccc(NC(=O)Nc4ccccc4)cc3)ccc2[nH]1; 0.9
CCCNc1cccc(-n2ncc3c(N/N=C/c4ccncc4)ncnc32)c1; 3.46
COc1cccc(Nc2nccc(-c3cnn4ncccc34)n2)c1; -2.03

* * *

Test system: Platelet-derived growth factor receptor alpha (Homo sapiens), P16234 [T674I]
Sequence (P16234 whole entry T674I): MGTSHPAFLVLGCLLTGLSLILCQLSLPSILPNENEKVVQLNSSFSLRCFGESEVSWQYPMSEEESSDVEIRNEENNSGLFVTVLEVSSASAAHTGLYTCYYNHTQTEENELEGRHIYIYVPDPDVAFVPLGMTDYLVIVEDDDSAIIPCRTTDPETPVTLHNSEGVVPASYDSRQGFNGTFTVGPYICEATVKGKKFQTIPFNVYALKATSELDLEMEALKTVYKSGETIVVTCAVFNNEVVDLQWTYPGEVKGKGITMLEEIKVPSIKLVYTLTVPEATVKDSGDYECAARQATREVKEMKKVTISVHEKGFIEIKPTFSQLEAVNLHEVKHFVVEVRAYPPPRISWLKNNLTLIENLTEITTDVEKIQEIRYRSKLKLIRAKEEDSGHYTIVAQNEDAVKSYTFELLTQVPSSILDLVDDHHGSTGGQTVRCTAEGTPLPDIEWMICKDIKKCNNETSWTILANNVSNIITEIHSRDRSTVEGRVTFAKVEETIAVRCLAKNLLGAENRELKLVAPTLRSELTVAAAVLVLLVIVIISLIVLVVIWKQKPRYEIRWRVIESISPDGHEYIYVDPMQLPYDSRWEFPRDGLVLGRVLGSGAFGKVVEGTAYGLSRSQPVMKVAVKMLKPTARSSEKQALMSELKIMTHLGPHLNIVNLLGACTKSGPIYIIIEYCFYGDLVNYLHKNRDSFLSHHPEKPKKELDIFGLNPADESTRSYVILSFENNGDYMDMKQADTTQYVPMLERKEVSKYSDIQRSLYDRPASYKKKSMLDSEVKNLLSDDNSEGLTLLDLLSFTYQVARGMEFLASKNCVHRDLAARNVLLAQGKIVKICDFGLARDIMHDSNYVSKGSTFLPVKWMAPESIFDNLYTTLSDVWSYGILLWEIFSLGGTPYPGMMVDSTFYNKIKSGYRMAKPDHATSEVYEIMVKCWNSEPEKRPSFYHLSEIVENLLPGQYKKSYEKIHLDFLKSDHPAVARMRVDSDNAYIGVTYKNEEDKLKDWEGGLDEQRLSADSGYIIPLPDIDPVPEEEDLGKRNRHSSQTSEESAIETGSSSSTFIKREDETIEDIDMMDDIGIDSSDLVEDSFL
assay_conditions: at 0.1 µM
observation_type: inhibition (%)

N#Cc1ccc2c(-c3ccnc(NC4CC4)n3)c(-c3ccc(F)cc3)nn2c1; 6.42
COc1c(C(N)=O)cc(-c2ccc(Cl)cc2)cc1-c1ccc(S(N)(=O)=O)cc1; 2.39
Cn1c(-c2nonc2N)nc2cnccc21; 4.72
CS(=O)(=O)Nc1ccc(-c2ccc3c(NC(=O)C4CC4)n[nH]c3c2)cc1; 4.77
NS(=O)(=O)c1cccc(N/C=C2\C(=O)Nc3ccccc32)c1; 9.22
CN(c1ccc(NC(=O)NCCN2CCOCC2)cc1)c1ccnc(Nc2ccc(CS(C)(=O)=O)cc2)n1; 63.9
COc1cc2c(cc1Nc1nc(Nc3cccc(F)c3C(N)=O)c3cc[nH]c3n1)N(C(=O)CN1CCN(C(C)C)CC1)CC2; 2.01
COc1cc(N2CCN(C(C)C)CC2)ccc1Nc1nc(Nc2cccc(F)c2C(=O)O)c2cc[nH]c2n1; 7.14
Cc1ccc(-c2cc3c(NC(=O)C4CC4)ncnc3o2)cc1; 6.86
O=C(Nc1n[nH]c2nnc(-c3cccnc3)cc12)C1CC1; 1.36

* * *

experimental_system: MAP kinase-activated protein kinase 3 (Homo sapiens)
assay_conditions: at 1 µM
Description: GSK_PKIS: MAPKAPK3 mean inhibition at 1 uM [Nanosyn]
observation_type: inhibition

COc1cc(N2CCN(C(C)C)CC2)ccc1Nc1nc(Nc2cccc(F)c2C(=O)O)c2cc[nH]c2n1; 4.68%
CS(=O)(=O)CCNCc1ccc(-c2ccc3ncnc(Nc4ccc(OCc5cccc(C(F)(F)F)c5)cc4)c3c2)o1; 8.3%
COc1cccc(Nc2nccc(-c3cnn4ncccc34)n2)c1; 2.89%
CCN1CCC(C(=O)Nc2n[nH]c3nnc(-c4cccc(F)c4F)cc23)CC1; -1.03%
Cc1ccc(-c2cc3c(NC(=O)C4CC4)ncnc3o2)cc1; 2.29%
c1cnn2ncc(-c3ccnc(NCCCN4CCOCC4)n3)c2c1; 4.86%
N#Cc1cccc(Nc2ncc(-c3ccccc3)o2)c1; 2.79%
Cc1cc(O)cc(C)c1/C=C/c1cncc(C(=O)OC(C)(C)C)c1; 2.47%
CC1=C(C(=O)Nc2ccc3[nH]nc(C)c3c2)C(c2ccc(C(F)(F)F)cc2)CC(=O)N1 (stereo unspecified); 3.08%
Cc1c2ccc(N(C)c3ccnc(Nc4cccc(S(N)(=O)=O)c4)n3)cc2nn1C; 4.05%
CC(C)c1ccc(-c2cc(-c3c[nH]nc3-c3ccccn3)ccn2)cc1; 6.51%

* * *

experimental_system: Activated CDC42 kinase 1 (Homo sapiens) (UniProt Q07912)
Sequence (Q07912 whole entry, looked up): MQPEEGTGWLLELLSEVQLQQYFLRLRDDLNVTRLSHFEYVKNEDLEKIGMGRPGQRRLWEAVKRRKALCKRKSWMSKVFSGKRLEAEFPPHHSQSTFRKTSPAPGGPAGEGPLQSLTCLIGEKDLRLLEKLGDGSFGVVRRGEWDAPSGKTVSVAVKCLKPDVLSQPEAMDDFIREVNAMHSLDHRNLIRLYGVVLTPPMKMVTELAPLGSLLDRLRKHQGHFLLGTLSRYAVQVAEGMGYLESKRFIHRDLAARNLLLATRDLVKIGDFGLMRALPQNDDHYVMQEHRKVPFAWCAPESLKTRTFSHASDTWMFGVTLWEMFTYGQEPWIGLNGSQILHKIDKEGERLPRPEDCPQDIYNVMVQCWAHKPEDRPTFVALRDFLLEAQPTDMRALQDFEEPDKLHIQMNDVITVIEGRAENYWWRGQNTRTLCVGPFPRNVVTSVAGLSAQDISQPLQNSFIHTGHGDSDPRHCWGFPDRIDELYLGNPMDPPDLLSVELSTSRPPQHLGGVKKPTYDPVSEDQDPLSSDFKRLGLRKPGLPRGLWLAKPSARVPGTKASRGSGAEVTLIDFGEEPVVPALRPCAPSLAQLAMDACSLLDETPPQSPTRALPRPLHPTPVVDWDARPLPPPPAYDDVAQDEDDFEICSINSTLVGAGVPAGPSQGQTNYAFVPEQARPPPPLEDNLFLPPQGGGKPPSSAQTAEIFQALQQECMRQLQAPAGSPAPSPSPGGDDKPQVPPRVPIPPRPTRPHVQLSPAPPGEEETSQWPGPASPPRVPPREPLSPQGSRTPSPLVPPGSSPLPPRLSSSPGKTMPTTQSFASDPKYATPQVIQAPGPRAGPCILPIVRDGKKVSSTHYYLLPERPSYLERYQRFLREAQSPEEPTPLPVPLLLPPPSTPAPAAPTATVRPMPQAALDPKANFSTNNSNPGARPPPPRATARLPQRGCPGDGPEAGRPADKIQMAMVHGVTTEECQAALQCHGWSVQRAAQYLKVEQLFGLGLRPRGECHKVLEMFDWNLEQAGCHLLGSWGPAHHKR
assay_conditions: at 1 µM
Description: GSK_PKIS: TNK2 mean inhibition at 1 uM [Nanosyn]
A collection of compounds and their measured inhibition
observation_type: inhibition (%)

Cc1ccc(-c2cc3c(NC(=O)C4CC4)ncnc3o2)cc1; 4.37
COc1ccc(Nc2ncc(-c3ccccc3)o2)cc1OC; 2.05
FC(F)(F)CNc1nccc(-c2cnn3ncccc23)n1; -0.17
Cc1cc(O)cc(C)c1/C=C/c1cncc(C(=O)OC(C)(C)C)c1; 4.9
